# Study target: Respiratory Syncytial Virus fusion glycoprotein (RSV F) on RSV-A2 virus (Respiratory Syncytial Virus subtype A (RSV-A2))
# Test description: cell-based or functional assay
Property name: Neutralization IC50 (RSV subtype A) (µg/mL)

1) ADI-36679 (antibody, V domains shown) VH: QVQLVQSGAEVKKPGESLKISCKGSGYSFRSYWIAWVRQMPGKGLEWMGTIFPGDSDVTYSPSFQGQVTISVDKSTSTAYLQWGSLKASDTAIYYCARRYDYIDFWGQGTLVTVSS VL: DIQMTQSPSSLSASVGDRVTITCQASQDIINHLNWYQQKPGKAPKLLIYDASNLHPGVPSRFSGSGSGTYFTFTISSLQPDDFATYYCQQYDFLAHITFGPGTKVDIK
0.01
